Where do these numbers come from? They come from patent US9738612B2.

system: A549; experiment: Sulforhodamine B proliferation; format: cell-based; settings: Homo sapiens, A549, 72 h, SRB, read-out: Inhibitory rate % (A549)
Bucketed by reported inhibition at 10 µM, buckets being 1: < 10%; 2: ≥ 10% and < 20%; 3: ≥ 20%

Solved entries (count: 2):
INSERT INTO results (chemical_string, assigned_label) VALUES
  ('C=C(C)n1c(=O)n(C(=O)c2ccccc2C)c2cc([N+](=O)[O-])ccc21', 2),
  ('C=CC(=O)n1c(=O)n(C(=C)C)c2cc([N+](=O)[O-])ccc21', 3);

Query: Which bin should I file C=C(C)n1c(=O)n(C(C)=O)c2ncc(Br)cc21 under?
Response: 2

Query: Which bin should I file C=C(C)n1c(=O)n(C(=O)CCCCCCC)c2cc([N+](=O)[O-])ccc21 under?
Response: 3

Query: Which bin should I file C=C(C)n1c(=O)n(C(=O)c2ccccc2C)c2ccc([N+](=O)[O-])cc21 under?
Response: 3

Query: Which bin should I file C=CC(=O)n1c(=O)n(C(=C)C)c2ccc([N+](=O)[O-])cc21 under?
Response: 2

Query: Which bin should I file C=C(C)n1c(=O)n(C(=O)CCC)c2cc([N+](=O)[O-])ccc21 under?
Response: 1

Query: Which bin should I file C=C(C)n1c(=O)n(C(=O)CCCCC)c2cc([N+](=O)[O-])ccc21 under?
Response: 2

Query: Which bin should I file C=C(C)n1c(=O)n(C(=O)CC)c2cc([N+](=O)[O-])ccc21 under?
Response: 1
